Protein target, amino acids: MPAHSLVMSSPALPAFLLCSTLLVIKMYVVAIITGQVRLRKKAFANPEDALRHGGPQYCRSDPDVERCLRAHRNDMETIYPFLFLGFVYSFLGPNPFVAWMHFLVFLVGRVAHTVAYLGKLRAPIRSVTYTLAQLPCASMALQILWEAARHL
assay.endpoint: IC50 (µM)
Enter your answer as a number in µM; do not include the unit.

So what does the record say about IC50 for O=C(Nc1cccc(-c2n[nH]c(=S)o2)c1)c1ccc(OCc2ccccc2)cc1 ?
2.5

So what does the record say about IC50 for S=c1[nH]nc(-c2ccc3[nH]c(Cc4ccc(OCc5ccccc5)cc4)nc3c2)o1 ?
1.6

So what does the record say about IC50 for S=c1[nH]nc(-c2ccc3[nH]c(-c4ccc(Oc5ccccc5)cc4)nc3c2)o1 ?
0.03

###

Below, each of the compounds is paired with its reported pIC50 value.
target: Leukotriene C4 synthase (Homo sapiens, UniProt Q16873); assay: Inhibition of human recombinant LTC4S expressed in HEK293 cell microsomal fraction preincubated for 10 mins followed by LTA4-methyl ester addition and measured after 10 mins by UPLC-MS/MS analysis; assay type: microsomes, Microsome
Sequence (Q16873 whole entry): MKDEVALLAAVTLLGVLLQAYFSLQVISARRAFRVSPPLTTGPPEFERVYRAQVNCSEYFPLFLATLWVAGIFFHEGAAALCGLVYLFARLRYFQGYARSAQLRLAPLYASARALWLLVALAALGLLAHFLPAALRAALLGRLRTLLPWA
Reminder that pIC50 means the negative base-10 logarithm of the concentration expressed in mol/L.

So what does the record say about pIC50 for S=c1[nH]nc(-c2ccc3[nH]c(-c4ccc(Oc5ccccc5)cc4)nc3c2)o1 ?
5.55

So what does the record say about pIC50 for S=c1[nH]nc(-c2ccc3[nH]c(-c4ccc(OCc5ccccc5)cc4)nc3c2)o1 ?
6.15

Now examine the next entry.
So what does the record say about pIC50 for CC(c1ccc(Oc2ccccc2)cc1)c1nc2cc(-c3n[nH]c(=S)o3)ccc2[nH]1 (stereo not drawn) ?
6.40

###

Biological target: Polyunsaturated fatty acid 5-lipoxygenase (Homo sapiens, UniProt P09917)
Sequence (P09917 whole entry): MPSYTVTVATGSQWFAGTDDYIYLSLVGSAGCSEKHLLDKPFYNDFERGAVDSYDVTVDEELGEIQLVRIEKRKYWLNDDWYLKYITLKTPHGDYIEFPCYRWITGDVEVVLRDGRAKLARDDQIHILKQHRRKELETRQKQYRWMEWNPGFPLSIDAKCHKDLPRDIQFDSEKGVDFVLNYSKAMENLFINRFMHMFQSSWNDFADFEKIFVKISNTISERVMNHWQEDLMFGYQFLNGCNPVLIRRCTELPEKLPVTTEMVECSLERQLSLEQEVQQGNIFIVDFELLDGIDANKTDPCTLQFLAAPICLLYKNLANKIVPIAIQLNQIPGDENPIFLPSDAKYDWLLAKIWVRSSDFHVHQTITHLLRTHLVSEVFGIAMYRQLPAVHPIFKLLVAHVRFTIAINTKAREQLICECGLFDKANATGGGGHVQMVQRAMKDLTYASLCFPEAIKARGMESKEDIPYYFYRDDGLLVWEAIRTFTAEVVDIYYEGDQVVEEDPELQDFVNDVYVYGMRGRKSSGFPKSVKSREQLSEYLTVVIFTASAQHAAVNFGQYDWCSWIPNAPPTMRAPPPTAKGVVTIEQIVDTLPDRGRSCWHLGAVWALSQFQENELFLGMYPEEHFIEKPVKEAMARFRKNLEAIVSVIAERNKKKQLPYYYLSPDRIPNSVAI
Test: Inhibition of human recombinant 5-LOX expressed in Escherichia coli BL21 assessed as inhibition of […] 5-LO product LTB4 formation preincubated for 15 mins followed by arachidonic acid addition and measured after 10 mins by RP-HPLC analysis
assay.endpoint: pIC50
Reminder that pIC50 means the negative base-10 logarithm of the concentration expressed in mol/L.

So what does the record say about pIC50 for CC(c1ccc(Oc2ccccc2)cc1)c1nc2cc(-c3n[nH]c(=S)o3)ccc2[nH]1 (stereo not drawn) ?
5.58

So what does the record say about pIC50 for S=c1[nH]nc(-c2ccc3[nH]c(-c4ccc(OCc5ccccc5)cc4)nc3c2)o1 ?
5.90

Now examine the next entry.
So what does the record say about pIC50 for S=c1[nH]nc(-c2ccc3[nH]c(-c4ccc(Oc5ccccc5)cc4)nc3c2)o1 ?
5.43
